assay: activity coefficient (dimensionless); of the first substance listed, at infinite dilution; xn = mol fraction of the nth substance listed; conditions: 348.15 K; Liquid; Chromatography; x1 = 0
Measured quantity: activity coefficient

                                   compound     measured_quantity  result_number
0  C=C(C)c1ccccc1 [(1-methylethenyl)benzene] + CCCCCCn1cc[n+](C)c1.N#C[B-](C#N)(C#N)C#N  activity coefficient            1.3
1  CCCCCC [hexane] + CCCCCCn1cc[n+](C)c1.N#C[B-](C#N)(C#N)C#N  activity coefficient           10.2
2  C#CCCCCCC [1-octyne] + CCCCCCn1cc[n+](C)c1.N#C[B-](C#N)(C#N)C#N  activity coefficient           3.98
3  CCCC=O [butanal] + CCCCCCn1cc[n+](C)c1.N#C[B-](C#N)(C#N)C#N  activity coefficient          0.554
4  CC(C)O [propan-2-ol] + CCCCCCn1cc[n+](C)c1.N#C[B-](C#N)(C#N)C#N  activity coefficient          0.961
5  CCCC(=O)OC [methyl butanoate] + CCCCCCn1cc[n+](C)c1.N#C[B-](C#N)(C#N)C#N  activity coefficient          0.715
6  C=Cc1ccccc1 [styrene] + CCCCCCn1cc[n+](C)c1.N#C[B-](C#N)(C#N)C#N  activity coefficient          0.878
7  C1CCCCC1 [cyclohexane] + CCCCCCn1cc[n+](C)c1.N#C[B-](C#N)(C#N)C#N  activity coefficient           5.58

All figures here come from the NIST ThermoML archive (doi:10.1016/j.jct.2011.11.025).
